Tested on: defecation number induced by restraint stress in rats
Assay overview: Increase of defecation number induced by restraint stress (animal model of irritable bowel syndrome)
Format: in vivo
Assay setup: rat, oral, 100 mg/kg
Marks after values point to notes of the source that are not given here.
Assay endpoint: Suppression rate of defecation number (%)

Data request: Supply recorded Suppression rate of defecation number (%) for CNCCC(Oc1ccc(C(F)(F)F)cc1)c1ccccc1 (stereo not shown) [Fluoxetin] here.
Data returned: 26%

Data request: Supply recorded Suppression rate of defecation number (%) for O=C1[C@@H]2[C@H]3CC[C@H](C3)[C@@H]2C(=O)N1CCCCN1CCN(c2ncccn2)CC1 [Tandospirone, tandospirone] here.
Data returned: 4%

Data request: Supply recorded Suppression rate of defecation number (%) for O=C1CC2(CCCC2)CC(=O)N1CCCCN1CCN(c2ncccn2)CC1 [Buspirone, buspirone] here.
Data returned: 44%

Data request: Supply recorded Suppression rate of defecation number (%) for CN(C)CCC=C1c2ccccc2CCc2ccccc21 [Amitriptyline, amitriptyline] here.
Data returned: 69* %

From: patent US6596759B2
